Target: Human IDO1 (Homo sapiens (Human), UniProt P14902)
Sequence (P14902 whole entry): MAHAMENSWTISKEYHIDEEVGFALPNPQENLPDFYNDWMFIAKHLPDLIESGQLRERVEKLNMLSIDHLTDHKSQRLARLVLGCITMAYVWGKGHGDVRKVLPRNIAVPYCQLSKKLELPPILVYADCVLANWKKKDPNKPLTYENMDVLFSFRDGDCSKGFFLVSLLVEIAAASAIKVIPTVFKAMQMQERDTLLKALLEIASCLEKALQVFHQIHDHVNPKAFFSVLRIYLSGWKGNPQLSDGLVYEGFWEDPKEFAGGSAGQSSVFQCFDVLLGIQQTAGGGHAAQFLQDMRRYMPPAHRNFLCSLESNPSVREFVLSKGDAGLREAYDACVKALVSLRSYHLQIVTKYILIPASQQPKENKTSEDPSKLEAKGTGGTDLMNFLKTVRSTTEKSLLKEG
Experiment: IDO Kynurenine Assay with Human IDO1/HEK293 Cells
Details: HEK293 cells with human IDO1; read-out: HEK human IDO-1 (IC50)
parameter: pIC50
Lab note — pIC50 values are minus log10 of concentrations in M.

Item under review: CCCC(Oc1ccc(-c2ccccc2-c2nnn[nH]2)cc1NC(=O)Nc1ccc(C)cc1)c1ccccc1Cl (stereo not drawn) [Example 313] . Reported pIC50?
6.21

# iterate: COc1ccc(-c2ccc(Oc3cccc4c3CCCC4)c(NC(=O)Nc3ccccc3C)c2)cc1C(=O)O [Example 115]
6.62

# iterate: COc1ccc(-c2ccc(Oc3ccccc3C(C)(C)C)c(NC(=O)Nc3ccccc3Cl)c2)cc1C(=O)O [Example 42]
6.21

# iterate: CCCOc1c(NC(=O)Nc2ccc(C)cc2)cc(-c2ccccc2-c2nnn[nH]2)cc1C(CC)c1ccccc1 (stereo not drawn) [Example 298]
7.52

# iterate: COc1cccc(NC(=O)Nc2cc(-c3cccc(C(=O)O)c3)ccc2Oc2ccccc2C(C)(C)C)c1 [Example 229]
5.12

# iterate: C#CCOc1cccc(Oc2ccc(-c3ccc(OC)c(C(=O)O)c3)cc2NC(=O)Nc2ccc(C)cc2)c1C [Example 141]
6.38

# iterate: Cc1ccc(NC(=O)Nc2cc(-c3cc(Cl)cc(C(=O)O)c3)cnc2Oc2ccccc2C(C)(C)C)cc1 [Example 337]
5.12

# iterate: CCCOc1c(/C=C/C=C(F)F)cc(-c2ccccc2-c2nnn[nH]2)cc1NC(=O)Nc1ccc(C)cc1 [Example 30]
7.70

# iterate: C/C=C/Cc1cc(-c2ccccc2-c2nnn[nH]2)cc(NC(=O)Nc2ccc(C)cc2)c1OCCC [Example 19]
7.52

# iterate: Cc1ccc(NC(=O)Nc2cc(-c3cccc(C(=O)O)c3)ccc2Oc2ccccc2C(C)(C)C)cc1 [Example 226]
5.04

# iterate: COc1ccc(-c2ccc(Oc3ccccc3C(C)C)c(NC(=O)Nc3ccc(C)cc3)c2)cc1C(=O)O [Example 63]
5.80

# iterate: COc1ccc(-c2ccc(Oc3cccc(C)c3C)c(NC(=O)Nc3ccc(C)cc3)c2)cc1C(=O)O [Example 123]
6.17

# iterate: O=C(Nc1ccc(OC(F)(F)F)cc1)Nc1cc(-c2ccccc2-c2nnn[nH]2)cc(CC2CC2)c1OCCC(F)(F)F [Example 319]
7.05

# iterate: Cc1ccc(NC(=O)Nc2cc(-c3ccccc3C(=O)O)ccc2Oc2ccccc2C(C)(C)C)cc1 [Example 2]
6.25

# iterate: Cc1ccc(NC(=O)Nc2cc(-c3cccc(C(=O)O)c3)ccc2Oc2cccc(Cl)c2)cc1 [Example 245]
5.18

* * *

Known IC50 of a selection of compounds
Biological target: IDO (Homo sapiens (Human), UniProt P14902)
Sequence (P14902 whole entry): as above
Assay: LLE_IDO_ABS_DR (IDO assay, method not described)
Enter your answer as a number in nM; do not include the unit.

Worked examples follow.
{"compoundSmiles": "COc1ccc(-c2ccc(Oc3ccccc3C(C)C)c(NC(=O)Nc3ccccc3Cl)c2)cc1C(=O)O", "IC50, nM": 530}
{"compoundSmiles": "COc1ccc(-c2ccc(Oc3ccc4c(c3)CCCC4)c(NC(=O)Nc3ccccc3C)c2)cc1C(=O)O", "IC50, nM": 580}
{"compoundSmiles": "CCCOc1c(CCC)cc(-c2ccccc2-c2nnn[nH]2)cc1NC(=O)Nc1ccc(C)cc1", "IC50, nM": 30}
{"compoundSmiles": "Cc1cccc(NC(=O)Nc2cc(-c3ccccc3-c3nnn[nH]3)cc(CC3CC3)c2OC2CCOCC2)c1", "IC50, nM": 130}
{"compoundSmiles": "CCCC(CCC)Oc1c(Br)cc(-c2ccccc2-c2nnn[nH]2)cc1NC(=O)Nc1ccccc1F", "IC50, nM": 3.25}
{"compoundSmiles": "Cc1ccccc1NC(=O)Nc1cc(-c2cc(Cl)ccc2C(=O)O)ccc1Oc1ccccc1C(C)(C)C", "IC50, nM": 3810}
{"compoundSmiles": "CCCC(CCC)Oc1ccc(-c2cc(F)ccc2C(=O)O)cc1NC(=O)Nc1ccc(C)cc1", "IC50, nM": 380}
{"compoundSmiles": "Cc1cccc(NC(=O)Nc2cc(-c3ccc(C(=O)O)c(Cl)c3)ccc2Oc2ccccc2C(C)(C)C)c1", "IC50, nM": 2560}
{"compoundSmiles": "CCC[C@H](Oc1ccc(-c2ccccc2-c2nnn[nH]2)cc1NC(=O)Nc1ccc(C)cc1)c1ccccc1", "IC50, nM": 3510}
{"compoundSmiles": "O=C(Nc1ccc(OC(F)(F)F)cc1)Nc1cc(-c2ccccc2-c2nnn[nH]2)cc(CC2CC2)c1OCCC(F)(F)F", "IC50, nM": 50}

Item under review: `CCCOc1c(/C=C/C=C(F)F)cc(-c2ccccc2-c2nnn[nH]2)cc1NC(=O)Nc1ccc(C)cc1` . Reported IC50?
9.95

# iterate: `COc1ccc(-c2ccc(Oc3cccc4ccccc34)c(NC(=O)Nc3ccccc3Cl)c2)cc1C(=O)O`
250

# iterate: `CCc1ccccc1Oc1ccc(-c2ccc(OC)c(C(=O)O)c2)cc1NC(=O)Nc1cccc(C)c1`
390

# iterate: `O=C(Nc1ccc(Cl)cc1)Nc1cc(-c2ccccc2-c2nnn[nH]2)cc(CC2CC2)c1OCC1CC1`
310

# iterate: `Cc1ccc(NC(=O)Nc2cc(-c3cc(Cl)cc(C(=O)O)c3)ccc2Oc2ccccc2C(C)(C)C)cc1`
3940

* * *

Biological target: IDO (Homo sapiens (Human))
Assay: Kynurenine assay in IFN-γ-stimulated Hela cells
Format: cell-based
Conditions: 20 h, read-out: Hela Kyurenine (IC50)
pIC50: −log10 of the molar value.
If the reported pIC50 equals or exceeds 6, assign true. If not, assign false.

// below: answered compounds
{"compoundSmiles": "COc1ccc(NC(=O)Nc2cc(-c3ccc(OC)c(C(=O)O)c3)ccc2Oc2ccccc2C(C)(C)C)cc1", "cat": "true"}
{"compoundSmiles": "COc1ccc(-c2ccc(Oc3ccccc3C(C)(C)C)c(NC(=O)Nc3ccc(C(F)(F)F)cc3)c2)cc1C(=O)O", "cat": "true"}

Then this compound:
# bool: pIC50 of `COc1ccc(-c2ccc(Oc3ccccc3C(C)C)c(NC(=O)Nc3ccccc3Cl)c2)cc1C(=O)O` >= 6
true

* * *

Known pIC50 of a selection of molecules
Molecular target: IDO (Homo sapiens (Human), UniProt P14902)
Test: LLE_IDO_ABS_DR (IDO assay, method not described)
Lab note — pIC50 values are minus log10 of concentrations in M.

Worked examples follow.
{"molecule": "Cc1ccccc1NC(=O)Nc1cc(-c2ccccc2-c2nnn[nH]2)ccc1Oc1ccccc1C(C)(C)C", "pIC50": 6.13}
{"molecule": "Cc1ccc(NC(=O)Nc2cc(-c3cc(F)ccc3C(=O)O)ccc2OC(CCN2CCOCC2)c2ccccc2)cc1 (stereo not drawn)", "pIC50": 7.40}
{"molecule": "O=C(Nc1ccc(F)cc1F)Nc1cc(-c2ccccc2-c2nnn[nH]2)cc(CC2CC2)c1OCCC(F)(F)F", "pIC50": 6.49}
{"molecule": "CCCC(CCC)Oc1ccc(-c2ccccc2C(=O)O)cc1NC(=O)Nc1ccc(C)cc1", "pIC50": 6.22}
{"molecule": "COc1ccc(-c2ccc(Oc3ccccc3C(C)(C)C)c(NC(=O)Nc3ccc(C)cc3C)c2)cc1C(=O)O", "pIC50": 5.51}

Item under review: `O=C(Nc1ccccc1F)Nc1cc(-c2ccccc2C(=O)O)cc(/C=C/C=C(F)F)c1OCCC(F)(F)F` . Reported pIC50?
6.09

# iterate: `Cc1ccc(NC(=O)Nc2cc(-c3cc(F)ccc3C(=O)O)cc(C/C=C/C(F)(F)F)c2OCCC(F)(F)F)cc1`
7.00

# iterate: `Cc1ccccc1NC(=O)Nc1cc(-c2cccc(F)c2C(=O)O)ccc1Oc1ccccc1C(C)(C)C`
5.59

# iterate: `COc1ccc(-c2ccc(Oc3ccccc3C3CC3)c(NC(=O)Nc3ccccc3Cl)c2)cc1C(=O)O`
6.09

# iterate: `CCCOc1c(C/C=C/c2ccccc2)cc(-c2ccccc2C(=O)O)cc1NC(=O)Nc1ccc(C)cc1`
7.00

# iterate: CCC(Oc1ccc(-c2cc(F)ccc2C(=O)O)cc1NC(=O)Nc1ccc(C)cc1)c1ccccc1 (stereo not drawn)
6.16

# iterate: `Cc1ccc(NC(=O)Nc2cc(-c3ccc(Cl)cc3C(=O)O)ccc2Oc2ccccc2C(C)(C)C)cc1`
6.62

# iterate: `CCCOc1c(C/C=C/c2ccccc2)cc(-c2ccccc2-c2nnn[nH]2)cc1NC(=O)Nc1ccccc1F`
6.68

# iterate: `CCOc1ccc(-c2ccc(Oc3ccccc3C(C)(C)C)c(NC(=O)Nc3ccc(C)cc3)c2)cc1C(=O)O`
6.00

# iterate: C=CC(c1ccccc1)c1cc(-c2ccccc2-c2nnn[nH]2)cc(NC(=O)Nc2ccc(C)cc2)c1OCCC(F)(F)F (stereo not drawn)
5.83

* * *

Target: IDO (Homo sapiens (Human), UniProt P14902)
Test: Kynurenine assay in IFN-γ-stimulated Hela cells
Format: cell-based
Conditions: 20 h, read-out: Hela Kyurenine (IC50)
parameter: log10(IC50) (log10 of the value in nM)
Friendly reminder: values = log10 of IC50, unit nM.

Worked examples follow.
{"compoundSmiles": "CCc1ccccc1Oc1ccc(-c2ccc(OC)c(C(=O)O)c2)cc1NC(=O)Nc1cccc(C)c1", "parameter": "log10(IC50)", "recordedValue": 2.11}
{"compoundSmiles": "COc1ccc(-c2ccc(Oc3ccccc3C(C)(C)C)c(NC(=O)Nc3ccc(Cl)cc3Cl)c2)cc1C(=O)O", "parameter": "log10(IC50)", "recordedValue": 1.95}
{"compoundSmiles": "O=C(Nc1ccccc1F)Nc1cc(-c2ccccc2-c2nnn[nH]2)ccc1Oc1cccc2c1CCCC2", "parameter": "log10(IC50)", "recordedValue": 2.94}
{"compoundSmiles": "COc1ccc(-c2ccc(Oc3ccccc3C(C)(C)C)c(NC(=O)Nc3ccc(C)cc3F)c2)cc1C(=O)O", "parameter": "log10(IC50)", "recordedValue": 2.67}
{"compoundSmiles": "COc1ccc(-c2ccc(Oc3cccc(C)c3C)c(NC(=O)Nc3ccccc3Cl)c2)cc1C(=O)O", "parameter": "log10(IC50)", "recordedValue": 1.90}

Item under review: `COc1ccccc1NC(=O)Nc1cc(-c2ccc(OC)c(C(=O)O)c2)ccc1Oc1ccccc1C(C)(C)C` . Reported log10(IC50)?
2.32

# iterate: `COc1ccc(-c2ccc(Oc3ccccc3C(C)(C)C)c(NC(=O)Nc3ccccc3C)c2)c(C(=O)O)c1`
3.10

# iterate: `Cc1cccc(NC(=O)Nc2cc(-c3cccc(C(=O)O)c3)ccc2Oc2ccc(Cl)cc2)c1`
3.41

# iterate: `Cc1ccc(NC(=O)Nc2cc(-c3cc(F)cc(C(=O)O)c3)ccc2Oc2ccccc2C(C)(C)C)cc1`
2.82

# iterate: `COc1ccc(-c2ccc(Oc3ccccc3Cl)c(NC(=O)Nc3ccccc3C(F)(F)F)c2)cc1C(=O)O`
3.10

# iterate: `O=C(Nc1ccccc1Cl)Nc1cc(-c2ccccc2-c2nnn[nH]2)ccc1Oc1cccc2c1CCCC2`
3.05

# iterate: `CC(C)(C)c1ccccc1Oc1ccc(-c2cc(C(=O)O)ccc2F)cc1NC(=O)Nc1ccc(OC(F)(F)F)cc1`
2.62

# iterate: `COc1ccc(-c2ccc(Oc3ccccc3C(C)(C)C)c(NC(=O)Nc3cccc(C)c3C)c2)cc1C(=O)O`
2.38

# iterate: `C#CCOc1cccc(Oc2ccc(-c3ccc(OC)c(C(=O)O)c3)cc2NC(=O)Nc2ccc(C)cc2)c1C`
1.70

# iterate: `Cc1ccc(NC(=O)Nc2cc(-c3ccccc3C(=O)NS(C)(=O)=O)ccc2Oc2ccccc2C(C)(C)C)cc1`
2.86
